target: WIZ protein (HiBit-WIZ fusion protein) (Homo sapiens, UniProt O95785+Q96SW2); construct: expressed in transfected cells; assay: Quantification of WIZ protein levels in HiBit tag fusion protein assay (WIZ HiBit assay in 293T cells); format: cell-based; conditions: HEK-293T, 100 − Amax, at 25 uM; 293T cells; read-out: % degradation of WIZ (100 − Amax)
Sequence (O95785 whole entry, the tested form may be a part): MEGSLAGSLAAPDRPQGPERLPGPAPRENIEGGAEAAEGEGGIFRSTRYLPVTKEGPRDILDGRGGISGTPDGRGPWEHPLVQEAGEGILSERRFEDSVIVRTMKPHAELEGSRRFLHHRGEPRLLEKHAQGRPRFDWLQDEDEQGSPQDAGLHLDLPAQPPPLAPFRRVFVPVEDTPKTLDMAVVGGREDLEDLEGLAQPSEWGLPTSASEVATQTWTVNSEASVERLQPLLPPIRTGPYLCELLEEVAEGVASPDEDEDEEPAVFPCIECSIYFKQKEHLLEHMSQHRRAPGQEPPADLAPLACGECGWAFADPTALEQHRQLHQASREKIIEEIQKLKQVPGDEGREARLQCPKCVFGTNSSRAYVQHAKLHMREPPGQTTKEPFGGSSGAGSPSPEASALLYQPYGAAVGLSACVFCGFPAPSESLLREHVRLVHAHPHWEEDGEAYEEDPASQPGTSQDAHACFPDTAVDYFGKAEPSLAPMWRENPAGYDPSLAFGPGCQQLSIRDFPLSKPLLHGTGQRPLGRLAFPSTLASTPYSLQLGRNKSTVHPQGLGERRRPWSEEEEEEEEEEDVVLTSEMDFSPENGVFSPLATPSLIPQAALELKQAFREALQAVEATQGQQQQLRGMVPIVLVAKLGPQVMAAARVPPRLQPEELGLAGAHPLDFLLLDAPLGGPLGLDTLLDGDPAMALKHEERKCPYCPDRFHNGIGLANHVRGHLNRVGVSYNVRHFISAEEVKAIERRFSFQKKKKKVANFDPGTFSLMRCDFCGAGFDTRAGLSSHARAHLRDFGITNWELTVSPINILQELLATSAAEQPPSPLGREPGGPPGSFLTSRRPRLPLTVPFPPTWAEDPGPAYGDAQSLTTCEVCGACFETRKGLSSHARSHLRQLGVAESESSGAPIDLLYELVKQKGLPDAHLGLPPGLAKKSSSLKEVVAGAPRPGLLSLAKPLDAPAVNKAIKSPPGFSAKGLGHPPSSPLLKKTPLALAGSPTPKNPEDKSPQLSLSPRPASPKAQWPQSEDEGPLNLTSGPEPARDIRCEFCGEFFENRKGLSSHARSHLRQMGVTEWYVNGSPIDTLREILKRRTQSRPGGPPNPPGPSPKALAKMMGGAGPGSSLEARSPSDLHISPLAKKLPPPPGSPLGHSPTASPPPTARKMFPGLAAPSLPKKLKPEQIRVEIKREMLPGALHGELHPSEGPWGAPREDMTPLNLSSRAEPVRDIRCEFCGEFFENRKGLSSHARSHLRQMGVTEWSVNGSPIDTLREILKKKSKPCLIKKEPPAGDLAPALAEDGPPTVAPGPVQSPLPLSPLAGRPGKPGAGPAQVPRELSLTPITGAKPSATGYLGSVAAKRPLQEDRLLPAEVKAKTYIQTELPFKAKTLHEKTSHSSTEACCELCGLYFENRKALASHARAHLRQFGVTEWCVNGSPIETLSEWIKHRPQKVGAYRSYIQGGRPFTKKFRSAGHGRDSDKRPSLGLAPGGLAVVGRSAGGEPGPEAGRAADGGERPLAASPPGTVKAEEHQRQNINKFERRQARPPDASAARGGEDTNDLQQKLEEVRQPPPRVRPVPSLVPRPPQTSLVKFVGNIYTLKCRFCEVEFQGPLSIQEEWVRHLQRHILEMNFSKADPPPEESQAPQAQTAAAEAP
Sequence (Q96SW2 whole entry, the tested form may be a part): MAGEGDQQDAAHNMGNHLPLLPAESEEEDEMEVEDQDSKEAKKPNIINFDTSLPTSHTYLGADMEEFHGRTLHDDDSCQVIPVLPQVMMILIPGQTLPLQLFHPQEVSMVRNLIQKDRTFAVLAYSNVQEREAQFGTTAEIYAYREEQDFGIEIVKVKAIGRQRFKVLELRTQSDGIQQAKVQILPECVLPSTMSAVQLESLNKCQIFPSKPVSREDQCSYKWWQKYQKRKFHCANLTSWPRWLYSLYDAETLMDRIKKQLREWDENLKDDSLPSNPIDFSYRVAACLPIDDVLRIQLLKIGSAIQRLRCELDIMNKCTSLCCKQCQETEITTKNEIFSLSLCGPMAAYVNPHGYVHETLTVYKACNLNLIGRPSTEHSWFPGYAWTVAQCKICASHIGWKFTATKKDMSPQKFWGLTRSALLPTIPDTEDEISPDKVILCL
Sequence (Q16531 whole entry partner, the tested form may be a part): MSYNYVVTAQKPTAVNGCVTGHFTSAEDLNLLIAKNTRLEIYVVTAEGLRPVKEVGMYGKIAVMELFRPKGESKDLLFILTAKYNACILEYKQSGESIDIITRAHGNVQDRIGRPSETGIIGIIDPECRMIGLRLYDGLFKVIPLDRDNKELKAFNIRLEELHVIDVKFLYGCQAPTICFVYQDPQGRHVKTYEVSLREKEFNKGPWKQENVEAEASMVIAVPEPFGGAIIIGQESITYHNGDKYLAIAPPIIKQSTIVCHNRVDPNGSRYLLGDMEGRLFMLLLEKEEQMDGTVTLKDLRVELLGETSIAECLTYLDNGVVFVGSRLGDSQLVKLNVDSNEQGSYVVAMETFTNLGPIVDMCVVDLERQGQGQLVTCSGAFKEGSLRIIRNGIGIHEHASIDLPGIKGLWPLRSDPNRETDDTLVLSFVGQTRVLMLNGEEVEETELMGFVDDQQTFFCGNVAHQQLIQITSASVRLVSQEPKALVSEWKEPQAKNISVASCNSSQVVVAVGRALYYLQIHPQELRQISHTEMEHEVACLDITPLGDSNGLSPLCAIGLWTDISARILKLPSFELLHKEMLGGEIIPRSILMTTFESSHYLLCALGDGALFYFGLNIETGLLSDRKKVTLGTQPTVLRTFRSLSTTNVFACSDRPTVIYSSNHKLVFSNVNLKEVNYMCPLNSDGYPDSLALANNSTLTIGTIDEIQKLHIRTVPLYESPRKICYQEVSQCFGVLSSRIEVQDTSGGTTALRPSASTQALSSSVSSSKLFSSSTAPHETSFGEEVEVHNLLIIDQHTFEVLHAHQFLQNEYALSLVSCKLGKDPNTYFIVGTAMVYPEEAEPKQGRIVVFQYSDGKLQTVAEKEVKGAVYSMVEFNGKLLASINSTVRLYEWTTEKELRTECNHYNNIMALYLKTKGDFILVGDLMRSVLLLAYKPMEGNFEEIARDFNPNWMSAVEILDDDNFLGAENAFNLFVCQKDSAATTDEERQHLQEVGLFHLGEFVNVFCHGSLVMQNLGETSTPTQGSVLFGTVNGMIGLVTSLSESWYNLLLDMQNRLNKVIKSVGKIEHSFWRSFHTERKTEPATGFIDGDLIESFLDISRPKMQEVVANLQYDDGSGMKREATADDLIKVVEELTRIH
Let's look at some molecules and their measured Dmax at 25 µM.

[
  {
    "molecule": "C[C@H]1CN(Cc2ccn3ncc(N4CCC(=O)NC4=O)c3c2)CCN1C1CCC(F)(F)CC1",
    "Dmax at 25 µM, %": 85
  },
  {
    "molecule": "C[C@H]1C[C@H](Cc2ccn3ncc(N4CCC(=O)NC4=O)c3c2)CCN1C(=O)C1CCN(C)CC1",
    "Dmax at 25 µM, %": 54
  },
  {
    "molecule": "CC(C)C(C)N1CCC(Cc2ccn3ncc(N4CCC(=O)NC4=O)c3c2)CC1 (centres unmarked)",
    "Dmax at 25 µM, %": 83
  },
  {
    "molecule": "O=C1CCN(c2cnn3ccc(CC4CCN(CC5CCCCCC5)CC4)cc23)C(=O)N1",
    "Dmax at 25 µM, %": 86
  },
  {
    "molecule": "O=C1CCN(c2cnn3ccc(CC4CCN(CC5CCCCC5)CC4)cc23)C(=O)N1",
    "Dmax at 25 µM, %": 91
  },
  {
    "molecule": "CC(CN1CCC(Cc2ccn3ncc(N4CCC(=O)NC4=O)c3c2)CC1)C1CCCCC1 (centres unmarked)",
    "Dmax at 25 µM, %": 84
  },
  {
    "molecule": "CC(C)CN1CC(Cc2ccn3ncc(N4CCC(=O)NC4=O)c3c2)C1",
    "Dmax at 25 µM, %": 27
  },
  {
    "molecule": "CC(C)N1CCN(Cc2ccn3ncc(N4CCC(=O)NC4=O)c3c2)CC1",
    "Dmax at 25 µM, %": 66
  }
]

---

Molecular target: WIZ protein (HiBit-WIZ fusion protein) (Homo sapiens, UniProt O95785+Q96SW2)
Construct: expressed in transfected cells
Assay: Quantification of WIZ protein levels in HiBit tag fusion protein assay (WIZ HiBit assay in 293T cells)
Format: cell-based
Conditions: WIZ HiBit assay in 293T cells; 10-point, 5-fold dose response, highest concentration 25 μM, about 18 hours; read-out: WIZ AC50
Method: The HiBit system from Promega was used to develop high-throughput and quantitative assays to measure changes in WIZ protein levels in response to compounds. […] The complementary fragment of Nanoluciferase (known as LgBit, from Promega), was added to the HiBit tag to form an active Nanoluciferase enzyme whose activity can be precisely measured. In this way, the levels of a fusion protein with the HiBit tag can be quantified in cell lysates. […]
outcome.measure: log10 DC50 (log10 of the value in µM)

[
  {
    "compound": "CC(C)CN1CCCN(Cc2ccn3ncc(N4CCC(=O)NC4=O)c3c2)CC1 [Example 250]",
    "log10 DC50": 0.13
  },
  {
    "compound": "O=C1CCN(c2cnn3ccc(CC4CNC4)cc23)C(=O)N1 [Example 133]",
    "log10 DC50": 0.68
  },
  {
    "compound": "O=C1CCN(c2cnn3ccc(CN4C[C@H]5CC[C@@H](C4)N5Cc4cccnc4)cc23)C(=O)N1 [Example 253]",
    "log10 DC50": -0.27
  },
  {
    "compound": "O=C1CCN(c2cnn3ccc(CC4CN(CC5CCCCC5)C4)cc23)C(=O)N1 [Example 135]",
    "log10 DC50": 0.32
  },
  {
    "compound": "CC(C)CN1CC[C@H](Cc2ccn3ncc(N4CCC(=O)NC4=O)c3c2)C[C@@H]1C(F)(F)F (relative stereo) [Example 312]",
    "log10 DC50": -0.43
  },
  {
    "compound": "CC(C)(O)CN1CCC(Cc2ccn3ncc(N4CCC(=O)NC4=O)c3c2)CC1 [Example 106]",
    "log10 DC50": -0.55
  },
  {
    "compound": "C[C@H]1C[C@H](Cc2ccn3ncc(N4CCC(=O)NC4=O)c3c2)CCN1C[C@H]1C[C@@H](F)[C@@H](F)C1 [Example 304]",
    "log10 DC50": -2.70
  },
  {
    "compound": "O=C1CCN(c2cnn3ccc(CN4CCN5CCOC[C@H]5C4)cc23)C(=O)N1 [Example 263]",
    "log10 DC50": -0.06
  },
  {
    "compound": "O=C1CCN(c2cnn3ccc(CN4CCN5C(=O)COC[C@H]5C4)cc23)C(=O)N1 [Example 314]",
    "log10 DC50": 0.41
  },
  {
    "compound": "Cc1cn(-c2cnn3ccc(C[C@@H]4CCN(CC5CCC(F)(F)CC5)[C@@H](C)C4)cc23)c(=O)[nH]c1=O [Example 351]",
    "log10 DC50": -1.33
  },
  {
    "compound": "COC[C@H]1CN(Cc2ccn3ncc(N4CCC(=O)NC4=O)c3c2)CCN1CC(C)C [Example 245]",
    "log10 DC50": -0.45
  },
  {
    "compound": "O=C1CCN(c2cnn3ccc(CC4CCN(Cc5ccccc5F)CC4)cc23)C(=O)N1 [Example 38]",
    "log10 DC50": -0.95
  },
  {
    "compound": "COc1cn(-c2cnn3ccc(C[C@@H]4CCN(CC5CCC(F)(F)CC5)[C@@H](C)C4)cc23)c(=O)[nH]c1=O [Example 353]",
    "log10 DC50": 0.96
  },
  {
    "compound": "O=C1CCN(c2cnn3ccc(CC4CCN(Cc5ccc(OC(F)(F)F)cc5)CC4)cc23)C(=O)N1 [Example 56]",
    "log10 DC50": -0.69
  }
]

---

target: WIZ protein (HiBit-WIZ fusion protein) (Homo sapiens, UniProt O95785+Q96SW2); construct: expressed in transfected cells; test: Quantification of WIZ protein levels in HiBit tag fusion protein assay (WIZ HiBit assay in 293T cells); type: cell-based; settings: WIZ HiBit assay in 293T cells; 10-point, 5-fold dose response, highest concentration 25 μM, about 18 hours; read-out: WIZ AC50
One threshold, 80 nM, splits the recorded DC50 values: lower ones are 1, equal or higher ones are -1.

[
  {
    "compound": "C[C@H]1CN(Cc2ccn3ncc(N4CCC(=O)NC4=O)c3c2)CCN1CC1CC2(COC2)C1",
    "class.assignment": 1
  },
  {
    "compound": "CC(C)CN1CC[C@@H](Cc2ccn3ncc(N4CCC(=O)NC4=O)c3c2)C[C@@H]1C",
    "class.assignment": 1
  },
  {
    "compound": "CC(C)CN1CC[C@@H](Cc2ccn3ncc(-n4cc(F)c(=O)[nH]c4=O)c3c2)C[C@@H]1C",
    "class.assignment": -1
  },
  {
    "compound": "C[C@H]1CN(CC2CCCCC2)CCN1Cc1ccn2ncc(N3CCC(=O)NC3=O)c2c1",
    "class.assignment": -1
  },
  {
    "compound": "O=C1CCN(c2cnn3ccc(CC4CCN(S(=O)(=O)C5CCOCC5)CC4)cc23)C(=O)N1",
    "class.assignment": 1
  },
  {
    "compound": "CO[C@H]1CC[C@H](CN2CCC(Cc3ccn4ncc(N5CCC(=O)NC5=O)c4c3)CC2)CC1",
    "class.assignment": 1
  },
  {
    "compound": "O=C1CCN(c2cnn3ccc(CC4CCN(CC5CCC5)C4)cc23)C(=O)N1 (centres unmarked)",
    "class.assignment": -1
  },
  {
    "compound": "CO[C@H]1C[C@H](CN2CC[C@@H](Cc3ccn4ncc(N5CCC(=O)NC5=O)c4c3)C[C@@H]2C)C1",
    "class.assignment": 1
  }
]

---

biological target: WIZ protein (HiBit-WIZ fusion protein) (Homo sapiens, UniProt O95785+Q96SW2); construct: expressed in transfected cells; experiment: Quantification of WIZ protein levels in HiBit tag fusion protein assay (WIZ HiBit assay in 293T cells); assay type: cell-based; settings: HEK-293T, DMSO-normalized, curve-fitted percentage of WIZ-HiBit remaining at 25 uM; 293T cells; read-out: WIZ Amax
One threshold, 20%, splits the recorded remaining activity at 25 µM values: lower ones are t, equal or higher ones are f.

[
  {
    "molecule": "Cc1c(F)cccc1CN1CCC(Cc2ccn3ncc(N4CCC(=O)NC4=O)c3c2)CC1 [Example 42]",
    "class.assignment": "f"
  },
  {
    "molecule": "C[C@H]1C[C@H](Cc2ccn3ncc(N4CCC(=O)NC4=O)c3c2)CCN1C(=O)N(C)C [Example 294]",
    "class.assignment": "t"
  },
  {
    "molecule": "O=C1CCN(c2cnn3ccc(CC4CCN(Cc5ccccn5)CC4)cc23)C(=O)N1 [Example 111]",
    "class.assignment": "f"
  },
  {
    "molecule": "Cc1cn(-c2cnn3ccc(C[C@@H]4CCN(CC5CCC(F)(F)CC5)[C@@H](C)C4)cc23)c(=O)[nH]c1=O [Example 351]",
    "class.assignment": "t"
  },
  {
    "molecule": "C[C@H]1CN(Cc2ccn3ncc(N4CCC(=O)NC4=O)c3c2)CCN1C1CC2(COC2)C1 [Example 332]",
    "class.assignment": "f"
  },
  {
    "molecule": "O=C1CCN(c2cnn3ccc(CC4CCN(C[C@H]5C[C@@H](F)[C@@H](F)C5)CC4)cc23)C(=O)N1 [Example 301]",
    "class.assignment": "t"
  },
  {
    "molecule": "O=C1CCN(c2cnn3ccc(CC4CCN(Cc5ccccc5)CC4)cc23)C(=O)N1 [Example 29]",
    "class.assignment": "f"
  }
]
